- measurement.notes: inhibitors of the yeast RAM network, pilot screen, dse1pr::URA3 reporter, 5-FOA selection (AID 869);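 note: 0% = DMSO wells with no growth and 100% = 10 µM 1-NA-PP1 with full growth; RAM network block rescues cells from 5-FOA so hits raise OD615 growth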
- measurement.parameters: S. cerevisiae dse1pr::URA3 5-FOA growth, OD615, 2 d; at 10 µM; active compounds read high; strain carries analog-sensitive mutant Cbk1 kinase
measurement.label: inhibition (%)

> print(dat)
                                    compound  number
 1  CN(C)C1NC(=O)c2cc(-c3ccccc3)sc2N1 (stereo unspecified)   0.135
 2  CCC(=O)N1CCc2cc(Br)cc(S(=O)(=O)N3CCN(C(=O)c4ccco4)CC3)c21    2.48
 3             Cc1cc(Nc2ccc(F)cc2C)n2ncnc2n1     1.8
 4            CC(C)CCNC(=O)Cn1cc2c(n1)CCCCC2    1.82
 5  Cn1nc(-c2ccc(Cl)cc2)c2cc(C(=O)NCC3CCCO3)sc21 (stereo unspecified)   -0.13
 6  Cc1nn(-c2ccccc2)c2c1C(c1ccccc1)C(C#N)=C(N)O2 (stereo unspecified)    2.24
 7             COc1cc(CC(=O)O)c(C(C)=O)cc1OC   0.365
 8  COc1cccc(N2C(=O)C3CCCN3C2c2ccc(Cl)cc2)c1 (stereo unspecified)    1.21
 9  CCOC(=O)N1CCN(C(c2ccc(C)cc2)c2sc3nc(C)nn3c2O)CC1 (stereo unspecified)   0.185
10  COc1ccc(Cn2nnc3c(=O)[nH]c(C(=O)NCCc4ccc(F)cc4)nc32)cc1OC    2.69
11  CCOC(=O)CNC(=O)Cn1cnc2sc(C)c(S(=O)(=O)N3CCC(C)CC3)c2c1=O    0.32
12  CCOc1ccc(C2CC(c3cccc(OC)c3)n3nc(N)nc3N2)cc1 (stereo unspecified)   0.875
13       CCn1c(CNC(=O)c2cccc(C)c2)nc2ccccc21     2.5
14       CCOc1ccc(OCC)c(Nc2cc(C)nc3ncnn23)c1     0.1
15  COc1ccc(C2C(C(=O)Nc3cccnc3)=C(C)Nc3nc(-c4ccco4)nn32)cc1 (stereo unspecified)    0.55
16  Cc1ccc(N(CC(N)=O)C2SC(=O)N(C)C2=O)cc1 (stereo unspecified)    1.09

---

- measurement.notes: growth suppression of beta-catenin knockout HCT116, pilot screen, human colon tumor cells (AID 823);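 note: 0% = wells killed by 20 µM Hyamine and 100% = untreated DMSO cell wells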
- measurement.parameters: CellTiter-Glo, 60 h, at 10 µM, active compounds read low
Results filed as inconclusive are left out.
# maps each entry to its viability
measurement.label: viability (%)

> print(dat)
                                    molecule  number
 1  c1coc(-c2nc(-c3ccco3)c(-c3ccco3)nc2-c2ccco2)c1    97.6
 2   CCOC(=O)c1nn(-c2ccccc2)c(=O)c2c(N)scc12     102
 3       Cn1c(NC(=O)CC2CCCCC2)cc(=O)n(C)c1=O    93.3
 4    Cc1cc(C)n2nc(SCC(=O)Nc3ccc(F)cc3)nc2n1     111
 5    O=C(c1cc(-c2ccc(Cl)c(Cl)c2)on1)N1CCCC1     111
 6  Cn1c(=O)c2c(SC3CCCC3)nc(C3CC3)nc2n(C)c1=O      91
 7  COc1cccc(N2C(=O)Nc3ccccc3C2(O)C(=O)NCc2ccc3c(c2)OCO3)c1 (stereo not drawn)    95.9
 8  COc1ccccc1N(CC(=O)Nc1ccc2c(c1)OCO2)S(=O)(=O)c1ccccc1    73.7
 9  COc1ccc(C2C(C(=O)NCCN(C)C)c3ccccc3C(=O)N2C)cc1OC (stereo not drawn)     100
10    CCOC(=O)CCn1cc(F)c(=O)n(Cc2ccccc2)c1=O     105
11  COc1ccc(-n2c(Cn3c(=O)sc4ccccc43)nnc2SC)cc1     101
12  COc1ccc(C(=O)c2cn[nH]c2-c2cc(Cl)ccc2O)cc1    87.7
13  CCc1ccc(NC(=O)C2CC=CCC2C(=O)O)cc1 (stereo not drawn)    98.1
14            Cc1cc2ccccc2n1CCNC(=O)C(C)(C)C    96.6
15           O=C(CCCC(=O)Nc1cccnc1)Nc1cccnc1     103
16  O=C(C1CCCN(S(=O)(=O)c2cccc3cccnc23)C1)N1CCN(c2ccc(F)cc2)CC1 (stereo not drawn)    47.9
17  O=C1c2ccccc2C(=O)N1CCCc1nc2ccccc2c(=O)n1Cc1ccco1    93.6
18             Cc1cc2ccccc2n1CCNC(=O)c1cccs1    92.6
19            O=C(OCn1nnc2ccccc2c1=O)c1cccs1     103
20  Cc1ccc(F)c(NC(=O)C2CCCCC2C(=O)O)c1 (stereo not drawn)    90.7
21                   OCCOCCNc1ncnc2nc[nH]c12     106
22  CCOC(=O)N1CCC(N2CC34C=CC(O3)C(C(=O)Nc3ccc(C(C)C)cc3)C4C2=O)CC1 (stereo not drawn)     102
23  CC(=O)c1ccc(OCC(O)CN2CCCC(C)C2)cc1 (stereo not drawn)    99.3
24  COc1ccc(-c2nnnn2C)cc1S(=O)(=O)NCCc1ccccc1    97.5
25  N#CC1=C(SCC(N)=O)NC(=O)CC1c1ccccc1Cl (stereo not drawn)      98
26  CC1(C(=O)NC2CCCCC2)CCC(=O)N1Cc1cccnc1 (stereo not drawn)     102
27  C=CCn1c2ccccc2c2nnc(SCN3C(=O)c4ccccc4C3=O)nc21     100
28  COC(=O)C1=C(C)N(C)C(C)=C(C(=O)OC)C1c1cccc(Br)c1      72

---

Here, each record is paired with measured RAM network inhibition data.
- measurement.notes: RAM signaling pathway blockade in yeast – S. cerevisiae, Pdr1DBD-CYC8 efflux-inhibited sensitized strain, primary screen (AID 1298);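 note: 0% = DMSO untreated cells without growth and 100% = 10 µM 1-NA-PP1 full growth; higher means more yeast growth rescued from 5-FOA killing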
- measurement.parameters: S. cerevisiae cbk1-as DSE1-URA3 strain, 5-FOA growth OD615, 2 d; at 50 µM; active compounds read high
measurement.label: RAM network inhibition (%)

> print(dat)
                                    compound  number
 1  C=CCn1cc(C(=O)NCc2cccnc2)c(=O)c2cc(S(=O)(=O)N(CC)CC)ccc21    0.51
 2  N#CC1=C2SCN(c3ccccc3)CN2C(=O)CC1c1c(Cl)cccc1Cl (stereo not given)    4.42
 3           O=C(CCCC(=O)Nc1cccnc1)Nc1cccnc1    6.65
 4              CCCOc1ccc(C(=O)NCc2ccco2)cc1    2.65
 5   CCCOc1ccc(NC(=O)c2c(-c3ccccc3)noc2C)cc1    2.96
 6         CS(=O)(=O)n1nc(C(=O)N2CCOCC2)nc1N     5.4
 7               CCCC(=O)Nc1nc2ccc(OCC)cc2s1    2.15
 8  O=C(CN(C1CCCCC1)S(=O)(=O)c1ccc(F)cc1)NCCCO    1.27
 9  CC(c1ccccc1)C1C(C#N)=C(N)OC2=C1C(=O)CCC2 (stereo not given)    1.95
10      COc1cc(-c2nc3cnccn3c2Nc2ccccc2)ccc1O    0.41
11  CN(CC(=O)N1CCCCCC1)S(=O)(=O)c1cccc2cccnc12   -1.18
12     CCn1c(=O)cc(N2CCC3(CC2)OCCO3)[nH]c1=O    1.74
13  CC1CCN(C(=O)CSc2ccc3nnc(-c4cccc(F)c4)n3n2)CC1   -1.03
14  COc1ccc(C)c2sc(=NC(=O)c3ccc(C#N)cc3)n(C)c12    1.83
15               CCCC(=O)Nc1ccc(N2CCCCC2)cc1    5.92
16          Cc1ccccc1CNc1nc(N)n(-c2ccccc2)n1    4.87
17  CCOc1ccccc1NC(=O)CN1C(=O)COc2ccc(Cl)cc21    5.69
18  O=C(Cn1c(=O)oc2cc(S(=O)(=O)N3CCCC3)ccc21)N1CCN(c2ccccn2)CC1    6.22
19  Cc1ccnc(N2C(=O)c3ccccc3C2Nc2ccccc2Cl)c1 (stereo not given)    12.8
20  COc1ccc2nc(NC(=O)C3COc4ccccc4O3)sc2c1 (stereo not given)    2.86

---

- measurement.notes: Restrictive medium S. cerevisiae growth inhibition, OD615, pilot screen of yeast lifespan reduction project, restrictive growth control (AID 706);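 note: modified DeaD lifespan yeast strain shifted to restrictive glucose medium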
- measurement.parameters: OD615, 48 h, at 10 µM, active compounds read high
The source made the active and inactive calls.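 How the source made its calls: active means growth inhibition above a set limit, 3 SD over mean compound inhibition, in both replicates (cut at about 43% in these data); inconclusive means above the limit in only one replicate; inactive means at or below the limit in both replicates.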
measurement.label: growth inhibition

> print(dat)
                                    compound              result
 1  COc1ccc(OC)c2[nH]c(=O)c(CCNC(=O)C(C)(C)C)cc12   -4.56% (inactive)
 2  CN(Cc1ccccc1)c1nc2c(c(=O)n(C)c(=O)n2C)n1CCSc1ncccn1   -3.17% (inactive)
 3  O=C1C2ON(c3ccccc3)C(c3ccncc3)C2C(=O)N1c1ccc(N2CCOCC2)cc1 (stereo not drawn)    0.35% (inactive)
 4  CCOCCCNC(=O)C(c1ccc(OC)cc1)N(Cc1ccc2c(c1)OCO2)C(=O)CNC(C)=O (stereo not drawn)    3.73% (inactive)
 5                   Nc1nnc(N2CCc3ccccc32)s1    16.4% (inactive)
 6    Cc1ccc(C(C)C)c(OCc2nc(-c3nonc3N)no2)c1   -14.4% (inactive)
 7  COc1ccc(C(=O)N2CCN(c3ccc(C)c(C)c3)CC2)cc1OC   -4.04% (inactive)
 8                 Cc1ccc(NC(=O)c2ccco2)cc1C   0.435% (inactive)
 9  CCOc1ccc(C2N(c3ccc(Cl)cc3)C(=O)C3CCCN32)cc1OC (stereo not drawn)   -6.81% (inactive)
10   Cc1ccc2[nH]c(=O)c(-c3noc(C(C)C)n3)cc2c1   -1.75% (inactive)
11  Cc1cc(C)c2c(=O)[nH]n(C3CCOC(C)(C)C3)c2n1 (stereo not drawn)  -0.145% (inactive)
12  COC(=O)C1=CN(CC2CCCO2)C=C(C(=O)OC)C1c1ccsc1 (stereo not drawn)   -3.27% (inactive)
13        NC(=O)C1CCN(C(=O)c2cc3ccccn3n2)CC1   -0.18% (inactive)
14    COc1cc(/C=N/n2cnnc2)ccc1OC(=O)c1ccncc1   -15.2% (inactive)
15                     Clc1ccc(NCn2cncn2)nc1    7.94% (inactive)
16  CC(=O)Oc1ccc(N2C(=O)CC(N3CCOCC3)C2=O)cc1 (stereo not drawn)      15% (inactive)
17  CC(C)N1CCc2c(sc(NC(=O)c3ccc(S(=O)(=O)N4CCOCC4)cc3)c2C(N)=O)C1   -11.5% (inactive)
18  CCOC(=O)C(C)n1cnc2c(nnn2-c2cccc(Cl)c2)c1=O (stereo not drawn)   -3.95% (inactive)
19  CC1(C)Oc2ccc3ccc(=O)oc3c2/C(=C/Nc2ccccn2)C1=O     -16% (inactive)
20  CCOc1ccc(OCC)c(NS(=O)(=O)c2cccc3nsnc23)c1   -21.1% (inactive)
21           CC(=O)n1c2ccccc2c2c1c1ccccc1n2C    3.17% (inactive)
22        CCCCCSc1nc2c(c(=O)[nH]c(=O)n2C)n1C   -5.52% (inactive)
23  CC(=O)Oc1cccc(N2C(=O)C3C(C2=O)C2C=CC3C23CC3)c1 (stereo not drawn)   -8.59% (inactive)
24  O=C(NCCN1CCN(c2ccccc2F)CC1)C1CCCN(S(=O)(=O)c2cnc[nH]2)C1 (stereo not drawn)    3.21% (inactive)
25      CCCCn1c2nc3ccccc3nc2c2c(=N)oc(C)nc21   -6.79% (inactive)
26  COc1ccc(Cl)cc1N1C(=O)C2CCCN2C1c1ccccc1F (stereo not drawn)   -4.76% (inactive)
27  O=C(CCn1c(=O)oc2ccccc21)NCc1ccc2c(c1)OCO2   -19.9% (inactive)
28  Cc1cccc(N=C(N2CCOCC2)P(=O)(N2CCOCC2)N2CCOCC2)c1   -23.4% (inactive)
29                       Cc1ccnc(SCC(=O)O)n1   -10.8% (inactive)
30            CCCc1ccc(-c2ccc(C(=O)O)cc2)nc1    5.22% (inactive)
31          Cc1nn(C)c(C)c1NS(=O)(=O)c1ccccc1   -6.73% (inactive)
32  Cn1cc(SCC(=O)N2CCN(c3ccccc3)CC2)c2ccccc21    11.5% (inactive)
33  Cc1cccc(NC(=O)CN2CCN(CC(=O)Nc3cccc(C)c3)CC2)c1     -10% (inactive)
